test: Antioxidant activity assessed as superoxide radical scavenging activity after 20 mins by NBT reduction assay
Assay type: functional
endpoint.name: IC50

Documented IC50 of `Oc1cc(O)c2c(c1)CCc1ccccc1O2` : > 100 µg/mL

Reported IC50 ( `COc1cc(O)cc2c1-c1c(O)cccc1CC2` ) = 62.4 µg/mL

Form field IC50, entry `COc1cc(O)cc(CCc2ccccc2O)c1` : > 100 µg/mL

Oc1ccc(CC[C@@H](O)C[C@H](O)CCc2ccc(O)cc2)cc1 [(+)-HANNOKINOL] yielded IC50 of > 100 µg/mL

Per the records, this molecule ( `COc1cc2c(ccc3cc(O)cc(OC)c32)cc1O` ) has IC50 equal to 39.6 µg/mL

Value of IC50 reported for the molecule `COc1cc(O)c2c(c1)CCc1cc(O)ccc1-2` is 51.5 µg/mL

Measured IC50, `COc1cc(O)cc(CCc2cccc(O)c2)c1` : > 100 µg/mL

GET /value?item= `COc1ccc(CCc2ccccc2O)cc1OC` &field=IC50 returns > 100 µg/mL
